Answer each item with its documented TGI.
# Test system: SNB-19 CNS
# Assay Comment: NCI tumour cell line growth inhibition, 48 h

Examples with answers:
C=CCCCCCCCCC(=O)NS(=O)(=O)c1ccccc1 = > 100 µM
O=C1NC(=O)c2ccc([N+](=O)[O-])c3cccc1c23 = 33.7 µM
O=C1CSC(c2ccccc2)N1c1nc2cc3sc(N4C(=O)CSC4c4ccccc4)nc3cc2s1 (stereo not drawn) = > 100 µM
CC12CCCC(O)C1CCC1=CC3(CCC12)SCCS3 (stereo not drawn) = > 10 µM
NCc1ccc(-c2ccc(CN)s2)s1 = > 100 µM

// each listed compound needs a value for TGI
1. CC(C)c1ccc(C(=O)Nc2sc3c(c2C(N)=O)CCC(=O)C3)cc1
2. C1=C(CC2=C[P+](c3ccccc3)(c3ccccc3)C=C(c3ccccc3)O2)OC(c2ccccc2)=C[P+]1(c1ccccc1)c1ccccc1
3. CN(CCC(=O)N1CC(CCl)c2ccc([N+](=O)[O-])cc21)CCC(=O)N1CC(CCl)c2ccc([N+](=O)[O-])cc21 (stereo not drawn)
4. O=C(CP(=O)(c1ccccc1)c1ccccc1)c1cccc(C(=O)CP(=O)(c2ccccc2)c2ccccc2)c1
5. C/C(Cl)=N/OC(=O)Nc1ccc(F)c([N+](=O)[O-])c1
6. O=c1[nH]c2cccc([N+](=O)[O-])c2c(=O)n1-c1ccc(Cl)cc1
7. O=S(=O)(O)CCSSCCS(=O)(=O)O
8. O=S(=O)(/N=S(/Nc1ccccc1)C(Cl)Cl)c1ccccc1 (stereo not drawn)

["6.02 µM", "1.25 µM", "> 100 µM", "> 100 µM", "37.3 µM", "45 µM", "> 1000 µM", "> 100 µM"]

// each listed compound needs a value for TGI
1. Fc1cc(F)c(COc2cc(Cn3cnc4c(Cl)nc(Cl)nc43)ccc2C23CC4CC(CC(C4)C2)C3)cc1F
2. Cc1sc2nc(N(C)C)oc(=O)c2c1C
3. O=c1[nH]c(=O)n(C/C=C/CO)nc1Br

["31.7 µM", "> 100 µM", "> 100 µM"]

// each listed compound needs a value for TGI
1. Cc1c(N=Nc2ccccc2)c(-c2ccccc2)n(C2OC(CO)C(O)C(O)C2O)c(=S)c1C#N (stereo not drawn)
2. CC(C)N(C(=O)C12CC3CC(CC(C3)C1)C2)C(C)C
3. CC(=O)OC1CC(O)C23COC(O)C1(C)C2CC(O)C1(C)C3C(=O)C(O)C2(C)C(c3ccoc3)CC3OC321 (stereo not drawn)

1. 27.8 µM
2. > 50 µM
3. > 100 µM

----------
# Test system: ACHN renal
# Assay Comment: NCI tumour cell line growth inhibition, 48 h
Answer each item with its documented TGI.

C=CCCCCCCCCC(=O)NS(=O)(=O)c1ccccc1 = > 100 µM
CC(=O)[CH-]C(=O)c1ccccc1.CC(=O)[CH-]C(=O)c1ccccc1.O=C([O-])c1ccc([O-])cc1.O=C([O-])c1ccc([O-])cc1.[Ti+4] = > 100 µM
C=CC(C)(C)n1cc(C2=C3OC(=O)C(c4cn(C(C)(C)C=C)c5ccccc45)=C3OC2=O)c2ccccc21 = > 100 µM

Then this compound:
Fill in the blank: the reported TGI of COC(=O)C1=CC2C(=O)c3ccccc3C1(c1ccccc1)N2C1CCCCC1 (centres undefined) is ____.
> 100 µM
